- experimental target: HDAC6 (Homo sapiens)
- Sequence (Q9UBN7 1-1215): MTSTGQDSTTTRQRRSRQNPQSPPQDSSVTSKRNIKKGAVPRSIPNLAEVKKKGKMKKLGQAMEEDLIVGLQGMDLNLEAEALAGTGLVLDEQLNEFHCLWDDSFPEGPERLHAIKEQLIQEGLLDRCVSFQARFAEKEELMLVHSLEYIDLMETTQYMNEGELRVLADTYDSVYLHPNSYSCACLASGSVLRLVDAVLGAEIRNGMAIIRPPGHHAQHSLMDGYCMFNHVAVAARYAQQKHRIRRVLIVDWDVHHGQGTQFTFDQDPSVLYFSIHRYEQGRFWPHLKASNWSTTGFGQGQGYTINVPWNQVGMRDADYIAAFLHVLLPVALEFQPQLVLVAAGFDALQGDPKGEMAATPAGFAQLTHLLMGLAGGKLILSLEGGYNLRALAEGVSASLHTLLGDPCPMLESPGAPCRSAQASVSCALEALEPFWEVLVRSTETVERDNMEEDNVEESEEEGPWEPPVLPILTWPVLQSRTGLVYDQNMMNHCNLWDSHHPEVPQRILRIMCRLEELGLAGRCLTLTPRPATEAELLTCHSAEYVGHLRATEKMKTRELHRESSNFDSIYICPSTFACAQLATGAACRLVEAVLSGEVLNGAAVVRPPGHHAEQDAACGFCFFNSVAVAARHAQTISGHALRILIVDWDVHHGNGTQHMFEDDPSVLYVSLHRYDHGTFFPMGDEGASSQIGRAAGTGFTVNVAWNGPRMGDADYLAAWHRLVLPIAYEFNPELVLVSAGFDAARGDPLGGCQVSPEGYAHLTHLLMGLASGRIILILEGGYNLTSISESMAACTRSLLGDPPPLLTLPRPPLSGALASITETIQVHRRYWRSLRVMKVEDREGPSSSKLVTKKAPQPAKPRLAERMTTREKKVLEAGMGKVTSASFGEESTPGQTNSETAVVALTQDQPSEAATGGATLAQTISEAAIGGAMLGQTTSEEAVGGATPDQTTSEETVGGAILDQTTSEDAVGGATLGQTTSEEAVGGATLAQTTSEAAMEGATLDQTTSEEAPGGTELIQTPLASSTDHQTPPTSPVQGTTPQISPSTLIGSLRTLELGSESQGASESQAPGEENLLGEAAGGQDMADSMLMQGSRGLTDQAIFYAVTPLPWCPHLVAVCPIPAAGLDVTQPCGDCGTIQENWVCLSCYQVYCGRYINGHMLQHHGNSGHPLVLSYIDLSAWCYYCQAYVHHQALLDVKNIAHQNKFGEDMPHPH
- procedure text: SPR (Biacore T200, immobilized HDAC6); also enzymatic inhibition IC50 […] and CETSA in MGC-803 cells
property label: pKd
Recall that pKd is obtained by taking minus log10 of the concentration measured in molar.

Record Cc1ccc([C@@H]2O[C@H](CO)[C@@H](O)[C@H](O)[C@H]2O)cc1Cc1ccc(-c2ccc(F)cc2)s1 , field pKd: 6.07
